# studyTarget: Glycogen phosphorylase, muscle form (Oryctolagus cuniculus)
# Sequence (P00489 whole entry): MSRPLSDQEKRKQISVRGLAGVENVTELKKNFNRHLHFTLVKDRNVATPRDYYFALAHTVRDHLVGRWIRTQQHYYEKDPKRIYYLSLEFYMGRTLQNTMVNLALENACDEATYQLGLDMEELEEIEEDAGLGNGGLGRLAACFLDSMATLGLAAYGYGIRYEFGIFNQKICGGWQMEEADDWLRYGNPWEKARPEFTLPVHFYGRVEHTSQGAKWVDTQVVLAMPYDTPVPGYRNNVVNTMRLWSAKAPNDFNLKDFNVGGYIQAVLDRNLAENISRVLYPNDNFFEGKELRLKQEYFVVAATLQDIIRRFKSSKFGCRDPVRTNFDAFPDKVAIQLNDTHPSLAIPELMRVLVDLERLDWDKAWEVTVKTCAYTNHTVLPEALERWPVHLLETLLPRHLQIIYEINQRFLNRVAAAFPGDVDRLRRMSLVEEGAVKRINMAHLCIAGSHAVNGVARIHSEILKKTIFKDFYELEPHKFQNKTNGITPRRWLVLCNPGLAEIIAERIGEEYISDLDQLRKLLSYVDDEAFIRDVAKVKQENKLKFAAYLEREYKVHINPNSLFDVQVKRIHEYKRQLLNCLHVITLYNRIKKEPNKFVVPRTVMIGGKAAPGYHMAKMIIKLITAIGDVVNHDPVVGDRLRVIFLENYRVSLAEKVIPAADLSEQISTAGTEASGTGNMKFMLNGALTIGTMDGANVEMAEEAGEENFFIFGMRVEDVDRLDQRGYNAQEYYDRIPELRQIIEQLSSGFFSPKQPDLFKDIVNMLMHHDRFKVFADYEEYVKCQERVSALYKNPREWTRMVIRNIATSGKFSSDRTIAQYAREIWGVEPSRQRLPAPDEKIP
recordedMetric: Ki
Value and unit, in that order.

Below are worked cases with known answers.
| compound | Ki |
| --- | --- |
| CC(=O)NC(=O)N[C@@H]1O[C@H](CO)[C@@H](O)[C@H](O)[C@H]1O | 305 µM |
| OC[C@H]1O[C@]2(ON=C(c3ccc(F)cc3)S2)[C@H](O)[C@@H](O)[C@@H]1O | 28 µM |
| O=C(NC1O[C@H](CO)[C@@H](O)[C@H](O)[C@H]1O)c1ccccc1 (single isomer, unassigned) | 81 µM |

Please look up its Ki: O=C(NC(=O)c1ccc2ccccc2c1)N[C@@H]1O[C@H](CO)[C@@H](O)[C@H](O)[C@H]1O
0.35 µM

Let us now turn to CC(=O)NC1O[C@H](CO)[C@@H](O)[C@H](O)[C@H]1O (single isomer, unassigned)
32 µM

Do the same for O=C(NC(=O)c1cccc2ccccc12)N[C@@H]1O[C@H](CO)[C@@H](O)[C@H](O)[C@H]1O please
5 µM

Now try OC[C@H]1O[C@]2(ON=C(c3ccccc3)S2)[C@H](O)[C@@H](O)[C@@H]1O .
26 µM
